assayed_target: PD-1/PD-L1 (Homo sapiens (Human), UniProt Q9NZQ7)
Sequence (Q9NZQ7 19-238): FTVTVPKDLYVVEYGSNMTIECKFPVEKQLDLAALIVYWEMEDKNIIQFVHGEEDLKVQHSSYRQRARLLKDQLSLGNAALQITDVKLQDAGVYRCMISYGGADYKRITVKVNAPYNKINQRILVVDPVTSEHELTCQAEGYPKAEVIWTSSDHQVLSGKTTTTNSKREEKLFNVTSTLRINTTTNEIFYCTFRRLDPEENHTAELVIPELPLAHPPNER
experiment: PD-1/PD-L1 biochemical protein-protein interaction assay (ALPHA)
settings: 0.3 nM His tagged PD-L1, 2.5 nM biotinylated Fc-PD-1, 60 minutes at 25° C., read-out: IC50 PD-L1-PD1
experimental_endpoint: pIC50
Conceptually, pIC50 converts a concentration in mol/L into minus its log10.

Use these answered entries as a reference point.
compound	pIC50
CCNc1nc(-c2cccc(-c3cccc(-c4cnc(CN5CC6(C5)CN(C(C)=O)C6)c(NCC)n4)c3Cl)c2Cl)cnc1CN1CC2(C1)CN(C(C)=O)C2 [compound 65]	9.78
COc1nc(-c2cccc(-c3cccc(-c4ccc(CN5CC(C)(CO)C5)c(C#N)c4)c3Cl)c2Cl)cnc1CNC[C@@H]1CCC(=O)N1 [compound 154]	9.90
COc1nc(-c2cccc(-c3cccc(-c4cnc(CNCCC(=O)O)c(OC)n4)c3Cl)c2Cl)ccc1CNC[C@@H]1CCC(=O)N1 [compound 512]	10.00
COc1nc(-c2cccc(-c3cccc(-c4cnc(CN5CCC(c6cccnc6)C5)c(OC)n4)c3Cl)c2Cl)cnc1CNC[C@@H]1CCC(=O)N1 (stereo partly drawn) [compound 405]	9.80
COc1nc(-c2cccc(-c3cccc(-c4cnc([C@@H](C)N)c(OC)n4)c3Cl)c2Cl)cnc1CNC[C@@H]1CCC(=O)N1 [compound 315]	9.74

Next, consider the following compound.
For the compound shown here, COc1nc(-c2cccc(-c3cccc(-c4cnc(CNC56CC(OC)(C5)C6)c(OC)n4)c3Cl)c2Cl)cnc1CNC[C@@H]1CCC(=O)N1 [compound 8] , give the reported pIC50.
9.23
